Read-out: Low-density lipoprotein receptor (LDLR), LDLR (gene 3949)
Assay: BSK_CASM3C_LDLR: BioMAP Diversity Plus: CASM3C Assay for Low-density lipoprotein receptor (LDLR) Biomarker Activity (AID 2283045);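 also: LDLR protein level on the cell surface quantified by ELISA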
Conditions: primary human coronary artery smooth muscle cells; actives raise or lower the signal
Active and inactive are the calls of the source. The calls were made as follows: active = hit-call score of the fitted dose curve at least 0.9, where 1 is the maximum; inactive = score below 0.9.
Assign a class; possible classes are 1 (active), -1 (inactive)

Prompt line: I would be grateful if you could indicate the recorded call for `c1ccc(Nc2ccccc2)cc1` .
Response line: -1

Prompt line: I would be grateful if you could indicate the recorded call for `COC(=O)c1cccc(C)c1S(=O)(=O)NC(=O)Nc1nc(OCC(F)(F)F)nc(N(C)C)n1` .
Response line: -1

Prompt line: I would be grateful if you could indicate the recorded call for `COc1c(Cl)ccc(Cl)c1C(=O)O` .
Response line: -1

====

Read-out: Interferon-gamma inducible Protein 10 (IP10), CXCL10 (gene 3627)
Test: BSK_BE3C_IP10: BioMAP Diversity Plus: BE3C Assay for Interferon-gamma inducible Protein 10 (IP10) Biomarker Activity (AID 2283034)
Settings: primary human bronchial epithelial cells; actives raise or lower the signal
Active and inactive are the calls of the source. The calls were made as follows: active = hit-call score of the fitted dose curve at least 0.9, where 1 is the maximum; inactive = score below 0.9.
Assign a class; possible classes are true (1) for active, false (0) for inactive

Examples from the recorded data:
CCOC(=O)C(C)Oc1ccc(Oc2nc3ccc(Cl)cc3o2)cc1 (stereo unspecified) ... false (0)
CCSC(=O)N(CC(C)C)CC(C)C ... false (0)
CC(=O)[C@H]1CC[C@H]2[C@@H]3CCC4=CC(=O)CC[C@]4(C)[C@H]3CC[C@]12C ... false (0)
COC(=O)CSc1cc(N=c2sc(=O)n3n2CCCC3)c(F)cc1Cl ... false (0)
COc1nc(C)nc(NC(=O)NS(=O)(=O)c2ccccc2OCCCl)n1 ... false (0)

Prompt line: I would be grateful if you could indicate the recorded call for `CCCN(CCC)c1c([N+](=O)[O-])cc(C(F)(F)F)c(N)c1[N+](=O)[O-]` .
Response line: true (1)

====

Target: Estrogen receptor (Homo sapiens)
Test: OT_ERa_GFPERaERE_0480: Odyssey Thera (OT) 8-hour HeLa Transcription Induction Assay for Estrogen Receptor (AID 2283381)
Calls of active or inactive are those of the source. The calls were made as follows: active = hit-call score of the fitted dose curve at least 0.9, where 1 is the maximum; inactive = score below 0.9.
Assign a class; possible classes are active, inactive

Prompt line: I would be grateful if you could indicate the recorded call for `CCCOC(=O)c1ccc(C(=O)OCCC)nc1` .
Response line: inactive

Prompt line: I would be grateful if you could indicate the recorded call for `CCOC(=O)c1ccc(O)cc1` .
Response line: inactive

Prompt line: I would be grateful if you could indicate the recorded call for `COCCO` .
Response line: inactive

Prompt line: I would be grateful if you could indicate the recorded call for `CC(=O)S[C@@H]1CC2=CC(=O)CC[C@]2(C)[C@H]2CC[C@@]3(C)[C@@H](CC[C@@]34CCC(=O)O4)[C@H]12` .
Response line: inactive

Prompt line: I would be grateful if you could indicate the recorded call for `O=C(O)c1ccccc1` .
Response line: inactive

====

Read-out: xenobiotic metabolism (CYP1A2), CYP1A2 (gene 1544)
Assay: CLD_CYP1A2_24hr: CellzDirect (CLD) Gene Expression Assay for xenobiotic metabolism (CYP1A2) at 24 hours (AID 2283683)
Inconclusive results are not listed. Calls of active or inactive are those of the source. How the source made its calls: active means hit-call score of the fitted dose curve at least 0.9, where 1 is the maximum; inconclusive means response in the unintended direction; inactive means score below 0.9.
ASSAY ENDPOINT: AC50

CCCCC(CC)CN1C(=O)C2C3C=CC(C3)C2C1=O (centres undefined) ... 7.81 µM (active)
CCN(CC)C(=O)c1cccc(C)c1 ... inactive
COC(=O)c1ccccc1C(=O)O ... inactive
CCOC(=O)[C@H](C)Oc1ccc(Oc2nc3ccc(Cl)cc3o2)cc1 ... inactive

====

Assay: BSK_3C_VCAM1: BioMAP Diversity Plus: 3C Assay for Vascular cell adhesion molecule 1 (VCAM1) Biomarker Activity (AID 2282999)
Details: BioMAP 3C HUVEC, VCAM1 ELISA, cytokine-stimulated; actives raise or lower the signal
Activity calls are given as the source filed them. The calls were made as follows: active = hit-call score of the fitted dose curve at least 0.9, where 1 is the maximum; inactive = score below 0.9.
Assign a class; possible classes are active, inactive

Examples from the recorded data:
CCCN(CCC)C(=O)SCC ... inactive
C#C[C@]1(O)CC[C@H]2[C@@H]3CCC4=CC(=O)CC[C@@H]4[C@H]3CC[C@@]21CC ... inactive

Proceed to the following item.
Prompt line: I would be grateful if you could indicate the recorded call for `CCOC(=O)COc1cc(-n2ncc(C(F)(F)F)c(C)c2=O)c(F)cc1Cl` .
Response line: inactive

====

Read-out: Paternally Expressed 10 (PEG10), PEG10 (gene 23089)
Test: LTEA_HepaRG_PEG10: Life Technologies and Expression Analysis (LTEA) Assay for Paternally Expressed 10 (PEG10) using HepaRG (AID 2283520)
Conditions: mRNA level, 48 h; actives raise or lower the signal
Calls of active or inactive are those of the source. The calls were made as follows: active = hit-call score of the fitted dose curve at least 0.9, where 1 is the maximum; inactive = score below 0.9.
Assign a class; possible classes are active, inactive

Prompt line: I would be grateful if you could indicate the recorded call for `CC(C)CCCCCCc1ccc(O)cc1` .
Response line: inactive

Prompt line: I would be grateful if you could indicate the recorded call for `S=C([S-])NCCNC(=S)[S-].[Mn+2]` .
Response line: active

Prompt line: I would be grateful if you could indicate the recorded call for CCCCOC(=O)C(C)Oc1ccc(Oc2ccc(C(F)(F)F)cn2)cc1 (stereo unspecified) .
Response line: inactive

Prompt line: I would be grateful if you could indicate the recorded call for C=CCOC(Cn1ccnc1)c1ccc(Cl)cc1Cl (stereo unspecified) .
Response line: active

Prompt line: I would be grateful if you could indicate the recorded call for `CC(=O)S[C@@H]1CC2=CC(=O)CC[C@]2(C)[C@H]2CC[C@@]3(C)[C@@H](CC[C@@]34CCC(=O)O4)[C@H]12` .
Response line: inactive

Prompt line: I would be grateful if you could indicate the recorded call for `CCN(CC)C(=O)c1cccc(C)c1` .
Response line: inactive

====

Read-out: matrix metalloproteinase-3 (MMP3), MMP3 (gene 4314)
Assay: LTEA_HepaRG_MMP3: Life Technologies and Expression Analysis (LTEA) Assay for matrix metalloproteinase-3 (MMP3) using HepaRG (AID 2283519)
Settings: mRNA level, 48 h; actives raise or lower the signal
Activity calls are given as the source filed them. The calls were made as follows: active = hit-call score of the fitted dose curve at least 0.9, where 1 is the maximum; inactive = score below 0.9.
Assign a class; possible classes are active, inactive

Examples from the recorded data:
N#CSCSc1nc2ccccc2s1 ... inactive
CCCCOC(=O)[C@@H](C)Oc1ccc(Oc2ccc(C(F)(F)F)cn2)cc1 ... inactive
CCCCCOC(=O)COc1cc(N2C(=O)C3=C(CCCC3)C2=O)c(F)cc1Cl ... inactive
C=CCOC(Cn1ccnc1)c1ccc(Cl)cc1Cl (configuration not stated) ... active
Cc1nn(C)c(Oc2ccccc2)c1C=NOCc1ccc(C(=O)OC(C)(C)C)cc1 ... active
C#CCOC(=O)[C@@H](C)Oc1ccc(Oc2ncc(Cl)cc2F)cc1 ... inactive

Prompt line: I would be grateful if you could indicate the recorded call for `CC(=O)S[C@@H]1CC2=CC(=O)CC[C@]2(C)[C@H]2CC[C@@]3(C)[C@@H](CC[C@@]34CCC(=O)O4)[C@H]12` .
Response line: inactive

Prompt line: I would be grateful if you could indicate the recorded call for CCCCCCC(C)OC(=O)COc1nc(F)c(Cl)c(N)c1Cl (configuration not stated) .
Response line: inactive

Prompt line: I would be grateful if you could indicate the recorded call for CCOC(=O)C(C)Oc1ccc(Oc2cnc3cc(Cl)ccc3n2)cc1 (configuration not stated) .
Response line: active

Prompt line: I would be grateful if you could indicate the recorded call for `CCCOC(=O)NCCCN(C)C` .
Response line: inactive

Prompt line: I would be grateful if you could indicate the recorded call for `O=C(O)c1ccccc1` .
Response line: inactive

Prompt line: I would be grateful if you could indicate the recorded call for `CCCCOCCOCCOCc1cc2c(cc1CCC)OCO2` .
Response line: inactive

====

Assay: CCTE_Shafer_MEA_dev_interburst_interval_mean: CCTE's Neural Network Formation Assay for Mean Interburst Interval, Shafer Lab (AID 2284046);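 also: well-mean interburst interval of bursting electrodes as AUC over four recording days; curve fitted for decrease in interburst interval relative to DMSO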
The source made the active and inactive calls. The calls were made as follows: active = hit-call score of the fitted dose curve at least 0.9, where 1 is the maximum; inactive = score below 0.9.
Assign a class; possible classes are active, inactive

Cc1nn(C)c(Oc2ccccc2)c1C=NOCc1ccc(C(=O)OC(C)(C)C)cc1 ... active

Proceed to the following item.
Prompt line: I would be grateful if you could indicate the recorded call for `CCCN(CCC)C(=O)SCC` .
Response line: inactive

====

Assay: ATG_TCF_b_cat_CIS: Attagene CIS-FACTORIAL HepG2 Assay for human T-Cell-Factor with beta-catenin (TCF/b-cat) (AID 2282965)
Conditions: HepG2 TCF/beta-catenin cis-reporter transcription, actives raise or lower the signal
Activity calls are given as the source filed them. How the source made its calls: active means hit-call score of the fitted dose curve at least 0.9, where 1 is the maximum; inactive means score below 0.9.
Assign a class; possible classes are TRUE (active), FALSE (inactive)

COCCO ... FALSE
C#C[C@]1(O)CC[C@H]2[C@@H]3CCC4=CC(=O)CC[C@@H]4[C@H]3CC[C@@]21CC ... FALSE
CCCCOC(=O)[C@@H](C)Oc1ccc(Oc2ccc(C(F)(F)F)cn2)cc1 ... FALSE
CCNc1nc(N)nc(Cl)n1 ... FALSE
OB(O)O ... FALSE

Prompt line: I would be grateful if you could indicate the recorded call for `Cc1nn(C)c(Oc2ccccc2)c1C=NOCc1ccc(C(=O)OC(C)(C)C)cc1` .
Response line: FALSE

Prompt line: I would be grateful if you could indicate the recorded call for `CCCCCOC(=O)COc1cc(N2C(=O)C3=C(CCCC3)C2=O)c(F)cc1Cl` .
Response line: TRUE

Prompt line: I would be grateful if you could indicate the recorded call for `CC(C)(C)[C@@H](O)[C@@H](Cc1ccc(Cl)cc1)n1cncn1` .
Response line: FALSE

Prompt line: I would be grateful if you could indicate the recorded call for `CCOC(=O)c1ccc(O)cc1` .
Response line: FALSE

Prompt line: I would be grateful if you could indicate the recorded call for `COC(=O)c1ccc(CNS(C)(=O)=O)cc1S(=O)(=O)NC(=O)Nc1nc(OC)cc(OC)n1` .
Response line: FALSE

Prompt line: I would be grateful if you could indicate the recorded call for `CCOC(=O)NCCOc1ccc(Oc2ccccc2)cc1` .
Response line: FALSE

Prompt line: I would be grateful if you could indicate the recorded call for CCOC(=O)C(C)Oc1ccc(Oc2nc3ccc(Cl)cc3o2)cc1 (centres undefined) .
Response line: FALSE

Prompt line: I would be grateful if you could indicate the recorded call for `COC(=O)c1ccccc1C(=O)O` .
Response line: FALSE

Prompt line: I would be grateful if you could indicate the recorded call for `CCOC(=O)[C@H](C)Oc1ccc(Oc2nc3ccc(Cl)cc3o2)cc1` .
Response line: FALSE

Prompt line: I would be grateful if you could indicate the recorded call for CCCCCCC(C)OC(=O)COc1nc(F)c(Cl)c(N)c1Cl (centres undefined) .
Response line: FALSE

Prompt line: I would be grateful if you could indicate the recorded call for `S=C([S-])NCCNC(=S)[S-].[Mn+2]` .
Response line: FALSE

Prompt line: I would be grateful if you could indicate the recorded call for `CCCN(CCC)c1c([N+](=O)[O-])cc(C(F)(F)F)c(N)c1[N+](=O)[O-]` .
Response line: FALSE

Prompt line: I would be grateful if you could indicate the recorded call for `C[C@]12C[C@H](O)[C@H]3[C@@H](CCC4=CC(=O)CC[C@@]43C)[C@@H]1CC[C@@H]2C(=O)CO` .
Response line: FALSE
